Source listed as ChEMBL document CHEMBL1150978.

# System: CEM-SS
# experiment: Tested for the antiviral activity against CEM-SS cells infected with HIV-2 (NIH-D2)
# Assay type: functional, cell-based
# protocolConditions: Homo sapiens
pEC50: −log10 of the molar value.
endpoint: pEC50

compound | testTarget | endpoint | testValue
CC(C)CCCC(C)[C@H]1CC[C@H]2[C@@H]3CCC4C[C@@H](CCC=C(c5cc(Cl)c(O)c(C(=O)O)c5)c5cc(Cl)c(O)c(C(=O)O)c5)CC[C@]4(C)[C@H]3CC[C@]12C (stereo partly specified) | CEM-SS | pEC50 | 5.30

###

# experiment: Tested for the inhibitory activity of production of viral antigen (p30) against Sc-1 cells of rauscher murine leukemia virus (R-Mul V)
# Assay type: functional, cell-based
# protocolConditions: Mus musculus
endpoint: IC50

compound | testValue
CC(C)CCCC(C)[C@H]1CC[C@H]2[C@@H]3CCC4C[C@@H](CCC=C(c5cc(Cl)c(O)c(C(=O)O)c5)c5cc(Cl)c(O)c(C(=O)O)c5)CC[C@]4(C)[C@H]3CC[C@]12C (stereo partly specified) | > 32 µM
